This collection of values is drawn from PubChem BioAssay.

biological target: Receptor tyrosine-protein kinase erbB-2 (Homo sapiens) (UniProt P04626); assay: reducers of endogenous Her2 protein level, primary screen, SKBR3 breast tumor cells, AlphaScreen, ATP viability (AID 461); conditions: 18-24 h, at 10 µM, active compounds read low;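 note: lower value means less Her2 protein in the cells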
Sequence (P04626 whole entry, looked up): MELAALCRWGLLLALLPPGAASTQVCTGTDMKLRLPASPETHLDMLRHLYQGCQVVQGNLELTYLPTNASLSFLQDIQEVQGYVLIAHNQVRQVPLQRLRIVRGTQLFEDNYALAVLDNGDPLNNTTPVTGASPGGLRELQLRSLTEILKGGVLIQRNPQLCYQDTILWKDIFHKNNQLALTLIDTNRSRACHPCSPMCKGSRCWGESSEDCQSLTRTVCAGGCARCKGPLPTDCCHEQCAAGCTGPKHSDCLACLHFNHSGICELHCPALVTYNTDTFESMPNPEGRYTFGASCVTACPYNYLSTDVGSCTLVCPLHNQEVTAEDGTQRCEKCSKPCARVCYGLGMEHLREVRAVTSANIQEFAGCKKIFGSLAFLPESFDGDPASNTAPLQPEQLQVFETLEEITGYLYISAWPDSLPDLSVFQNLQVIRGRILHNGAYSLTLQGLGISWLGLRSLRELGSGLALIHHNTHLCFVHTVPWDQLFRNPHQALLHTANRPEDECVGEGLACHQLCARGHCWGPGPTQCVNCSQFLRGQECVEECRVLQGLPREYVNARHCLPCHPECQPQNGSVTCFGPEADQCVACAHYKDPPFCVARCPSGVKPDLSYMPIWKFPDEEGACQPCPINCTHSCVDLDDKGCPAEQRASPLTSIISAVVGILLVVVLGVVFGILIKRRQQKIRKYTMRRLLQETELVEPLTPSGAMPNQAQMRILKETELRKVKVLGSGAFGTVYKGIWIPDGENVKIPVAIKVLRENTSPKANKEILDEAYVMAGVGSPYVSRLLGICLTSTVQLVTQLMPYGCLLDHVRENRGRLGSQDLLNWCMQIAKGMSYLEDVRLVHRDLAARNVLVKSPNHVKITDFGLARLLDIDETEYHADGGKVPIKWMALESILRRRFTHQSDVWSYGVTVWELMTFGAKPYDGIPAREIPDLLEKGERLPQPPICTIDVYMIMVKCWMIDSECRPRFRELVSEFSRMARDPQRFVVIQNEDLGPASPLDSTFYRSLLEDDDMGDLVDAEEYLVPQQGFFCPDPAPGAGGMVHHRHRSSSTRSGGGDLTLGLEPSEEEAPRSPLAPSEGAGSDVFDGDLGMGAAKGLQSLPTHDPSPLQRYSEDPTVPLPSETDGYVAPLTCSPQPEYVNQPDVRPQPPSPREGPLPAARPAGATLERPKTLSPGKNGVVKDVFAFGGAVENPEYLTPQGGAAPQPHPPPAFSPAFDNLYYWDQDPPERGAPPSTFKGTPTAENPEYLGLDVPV

- compound: "CSCCC(NS(=O)(=O)c1ccc2c(c1)oc(=O)n2C)C(=O)NC1CCCCC1 (centres undefined)"
  assayed_target: "Receptor tyrosine-protein kinase erbB-2 (Homo sapiens) (UniProt P04626)"
  Her2 level, %: 110
- compound: "CCOC(=O)c1cc2sc(C)cc2n1C(C)C(=O)OCC (centres undefined)"
  assayed_target: "Receptor tyrosine-protein kinase erbB-2 (Homo sapiens) (UniProt P04626)"
  Her2 level, %: 79
- compound: "COc1cc(S(=O)(=O)N2CCOCC2)ccc1NC(=O)COC(=O)c1ccccn1"
  assayed_target: "Receptor tyrosine-protein kinase erbB-2 (Homo sapiens) (UniProt P04626)"
  Her2 level, %: 92
- compound: "CC(C)[C@H](NC(=O)OC(C)(C)C)c1nnc(SCc2cccc(F)c2)o1"
  assayed_target: "Receptor tyrosine-protein kinase erbB-2 (Homo sapiens) (UniProt P04626)"
  Her2 level, %: 120
- compound: "Nn1c(CSc2nc3ccccc3o2)nnc1CSc1nc2ccccc2o1"
  assayed_target: "Receptor tyrosine-protein kinase erbB-2 (Homo sapiens) (UniProt P04626)"
  Her2 level, %: 94.5
- compound: "CS(=O)(=O)N(CC(=O)NCc1ccccn1)c1ccc2c(c1)OCCO2"
  assayed_target: "Receptor tyrosine-protein kinase erbB-2 (Homo sapiens) (UniProt P04626)"
  Her2 level, %: 104
- compound: "CC1CCN(C(=O)Cn2c(=O)oc3ccccc32)CC1"
  assayed_target: "Receptor tyrosine-protein kinase erbB-2 (Homo sapiens) (UniProt P04626)"
  Her2 level, %: 108
- compound: "COc1cccc(CNC(=O)CCn2c(=O)oc3ccccc32)c1"
  assayed_target: "Receptor tyrosine-protein kinase erbB-2 (Homo sapiens) (UniProt P04626)"
  Her2 level, %: 94.5
- compound: "CCOC(=O)c1ccc(NS(=O)(=O)c2cccc3nsnc23)cc1"
  assayed_target: "Receptor tyrosine-protein kinase erbB-2 (Homo sapiens) (UniProt P04626)"
  Her2 level, %: 106
- compound: "O=C(Nc1ccc2c(c1)OCO2)C1CCCN1C(=O)Nc1ccccc1F (centres undefined)"
  assayed_target: "Receptor tyrosine-protein kinase erbB-2 (Homo sapiens) (UniProt P04626)"
  Her2 level, %: 90
- compound: "CSc1nnc2n(CCc3ccccc3)c(=O)c3c4c(sc3n12)CCCC4"
  assayed_target: "Receptor tyrosine-protein kinase erbB-2 (Homo sapiens) (UniProt P04626)"
  Her2 level, %: 94
- compound: "O=C(Nc1nccs1)c1ccc(COc2ccccc2Br)o1"
  assayed_target: "Receptor tyrosine-protein kinase erbB-2 (Homo sapiens) (UniProt P04626)"
  Her2 level, %: 91.5
- compound: "CNC(=O)CSc1nnc(-c2cccc(S(=O)(=O)N3CCOCC3)c2)n1-c1ccc(F)cc1"
  assayed_target: "Receptor tyrosine-protein kinase erbB-2 (Homo sapiens) (UniProt P04626)"
  Her2 level, %: 95
- compound: "COc1ccc(N(CC(=O)N2c3ccccc3CC2C)S(=O)(=O)c2c(C)noc2C)cc1 (centres undefined)"
  assayed_target: "Receptor tyrosine-protein kinase erbB-2 (Homo sapiens) (UniProt P04626)"
  Her2 level, %: 88.5
- compound: "CCOc1ccc(S(=O)(=O)Nc2ccccc2C(=O)Nc2ccccc2N2CCOCC2)cc1"
  assayed_target: "Receptor tyrosine-protein kinase erbB-2 (Homo sapiens) (UniProt P04626)"
  Her2 level, %: 97.5
- compound: "COC(=O)c1cc(NC(=O)C2CC=CCC2C(=O)O)cc(C(=O)OC)c1 (centres undefined)"
  assayed_target: "Receptor tyrosine-protein kinase erbB-2 (Homo sapiens) (UniProt P04626)"
  Her2 level, %: 86.5
- compound: "CCCC(c1nnnn1Cc1ccc(OC)cc1)N1CCN(c2ccccc2OC)CC1 (centres undefined)"
  assayed_target: "Receptor tyrosine-protein kinase erbB-2 (Homo sapiens) (UniProt P04626)"
  Her2 level, %: 112
- compound: "Cc1ccccc1NC(=O)CSc1nc(N)c(C#N)c(-c2cccs2)c1C#N"
  assayed_target: "Receptor tyrosine-protein kinase erbB-2 (Homo sapiens) (UniProt P04626)"
  Her2 level, %: 77
- compound: "O=C1N2c3ccccc3CCc3cccc(c32)C1(O)C(F)(F)F (centres undefined)"
  assayed_target: "Receptor tyrosine-protein kinase erbB-2 (Homo sapiens) (UniProt P04626)"
  Her2 level, %: 90.5
- compound: "COc1ccc(S(=O)(=O)N2CCOCC2)cc1C(=O)Nc1cc(C)on1"
  assayed_target: "Receptor tyrosine-protein kinase erbB-2 (Homo sapiens) (UniProt P04626)"
  Her2 level, %: 124
- compound: "COc1ccccc1Nc1nc2ccccc2[nH]1"
  assayed_target: "Receptor tyrosine-protein kinase erbB-2 (Homo sapiens) (UniProt P04626)"
  Her2 level, %: 93.5
- compound: "Cc1cc(Nc2ccccc2N2CCOCC2)n2ncnc2n1"
  assayed_target: "Receptor tyrosine-protein kinase erbB-2 (Homo sapiens) (UniProt P04626)"
  Her2 level, %: 96
- compound: "COC(=O)c1ccc(CSc2nc3c(cnn3-c3ccc(F)cc3)c(=O)[nH]2)o1"
  assayed_target: "Receptor tyrosine-protein kinase erbB-2 (Homo sapiens) (UniProt P04626)"
  Her2 level, %: 101
- compound: "C=CCn1c(SCC(=O)O)nnc1-c1cccc(Cl)c1"
  assayed_target: "Receptor tyrosine-protein kinase erbB-2 (Homo sapiens) (UniProt P04626)"
  Her2 level, %: 107
- compound: "O=C(c1cccnc1NCc1ccccc1)N1CCOCC1"
  assayed_target: "Receptor tyrosine-protein kinase erbB-2 (Homo sapiens) (UniProt P04626)"
  Her2 level, %: 126
- compound: "CN(CCC#N)C(=O)COC(=O)c1ccc(Cl)c(S(N)(=O)=O)c1"
  assayed_target: "Receptor tyrosine-protein kinase erbB-2 (Homo sapiens) (UniProt P04626)"
  Her2 level, %: 97.5
- compound: "COc1ccc2cc(CN(CCO)C(=O)c3ccccc3F)c(=O)[nH]c2c1"
  assayed_target: "Receptor tyrosine-protein kinase erbB-2 (Homo sapiens) (UniProt P04626)"
  Her2 level, %: 126
- compound: "C=CCn1c(N)c(C(=O)NCCC2=CCCCC2)sc1=S"
  assayed_target: "Receptor tyrosine-protein kinase erbB-2 (Homo sapiens) (UniProt P04626)"
  Her2 level, %: 92.5
- compound: "Cc1cccc(COc2ccc(/C(O)=C3\\C(=O)C(=O)N(CCN(C)C)C3c3ccncc3)cc2)c1 (centres undefined)"
  assayed_target: "Receptor tyrosine-protein kinase erbB-2 (Homo sapiens) (UniProt P04626)"
  Her2 level, %: 94

###

assay: HUVEC growth inhibition – cell-based, human, primary screen (AID 575); conditions: HUVEC proliferation, CellTiter-Glo luminescence, 72 h; at 10 µM; active compounds read low;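 note: 100% = median of untreated cell wells with 0.1% DMSO on each plate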
Below: a set of entries, each annotated with reported viability.

- compound: "COc1ccccc1N1CCN(C(=O)CSc2nc(-c3ccccc3)cc(=O)[nH]2)CC1"
  unit_symbol: "%"
  viability: 80.8
- compound: "CC1(C)Cc2noc(N)c2C(C)(C)N1O"
  unit_symbol: "%"
  viability: 89.5
- compound: "O=C(C1CCN(S(=O)(=O)N2CCC3(CC2)OCCO3)CC1)N1CCOCC1"
  unit_symbol: "%"
  viability: 99.4
- compound: "O=c1[nH]cnc2c1C1(CCCC1)Cc1ccccc1-2"
  unit_symbol: "%"
  viability: 93.1
- compound: "Cc1cc(Oc2ccccc2)nc(-c2ccccc2)n1"
  unit_symbol: "%"
  viability: 92.7
- compound: "CCC(=O)Nc1cc2nn(-c3ccccc3)nc2cc1Cl"
  unit_symbol: "%"
  viability: 55
- compound: "N#Cc1nc(-c2ccco2)oc1NCCc1ccccc1"
  unit_symbol: "%"
  viability: 90.6
- compound: "O=C1c2oc3ccccc3c(=O)c2C(c2ccccn2)N1Cc1ccccc1 (centres undefined)"
  unit_symbol: "%"
  viability: 95.6
- compound: "COCCn1c(SCC(=O)Nc2cccc(OC)c2)nnc1-c1ccccc1"
  unit_symbol: "%"
  viability: 90.1

###

molecular target: Receptor tyrosine-protein kinase erbB-2 (Homo sapiens) (UniProt P04626); experiment: reducers of endogenous Her2 protein level, primary screen, SKBR3 breast tumor cells, AlphaScreen, ATP viability (AID 461); conditions: 18-24 h, at 10 µM, active compounds read low;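 note: lower value means less Her2 protein in the cells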

- compound: "COc1cccc(NC(=O)CN2CCN(c3ccccc3F)CC2)c1"
  Her2 level / %: 88.5
- compound: "CCN(CC)CCCC1(CN)OCCc2ccccc21 (configuration not stated)"
  Her2 level / %: 88.5
- compound: "CCOC(=O)CSc1nc2cc(C(=O)NCc3ccco3)ccc2c(=O)n1-c1ccc(F)cc1"
  Her2 level / %: 105
- compound: "Cc1nn(-c2ccccc2)c2sc(C(=O)N3CCOCC3)cc12"
  Her2 level / %: 84.5
- compound: "O=C(NCC1CCCO1)C1CCN(c2ccc(S(=O)(=O)N3CCCC3)cc2)CC1 (configuration not stated)"
  Her2 level / %: 112
- compound: "CC(C(=O)NC1CCCCCC1)N(c1ccccc1)S(C)(=O)=O (configuration not stated)"
  Her2 level / %: 97.5
- compound: "COc1ccc(CNc2ccc(C(=O)O)cc2)cc1"
  Her2 level / %: 87
- compound: "COC(=O)Nc1ccc(S(=O)(=O)N2CCN(c3ccc(F)cc3)CC2)cc1"
  Her2 level / %: 106
- compound: "COCCn1c(COc2ccc(Cl)cc2)nnc1SCC(N)=O"
  Her2 level / %: 84.5
- compound: "CCCCn1c(=O)[nH]c(=O)c2c1nc(-c1ccncc1)n2CCOC"
  Her2 level / %: 116
- compound: "CCOc1ccc(-c2nnc(N)s2)cc1"
  Her2 level / %: 90.5
- compound: "CC(C(=O)N1CCc2ccccc21)N1CCc2ccccc2C1 (configuration not stated)"
  Her2 level / %: 79
- compound: "COCCCNC(=O)CCc1nc(-c2ccccc2Cl)no1"
  Her2 level / %: 95
- compound: "CCOC(=O)c1sc(C)c2c1NC(C)(c1cccs1)NC2=O (configuration not stated)"
  Her2 level / %: 96.5
- compound: "COc1ccc(-c2cc3n(n2)CCc2nc4ccccc4n2-3)cc1"
  Her2 level / %: 70
- compound: "O=c1c2cc(Cl)ccc2[nH]c(=S)n1Cc1ccco1"
  Her2 level / %: 81
- compound: "COc1cc2nc(C3CCC3)n(NC(=O)C3CCCC(OC)C3)c(=O)c2cc1OC (configuration not stated)"
  Her2 level / %: 110
- compound: "CCOC(=O)CSc1nc(C)c(C(=O)OCC)s1"
  Her2 level / %: 93.5
- compound: "Cc1ccc2cc(C#N)c(NCCCNC(=O)C3CCCO3)nc2c1 (configuration not stated)"
  Her2 level / %: 73
- compound: "CC(=O)N1CCN(c2ccc(S(=O)(=O)N3CCCCC3)cn2)CC1"
  Her2 level / %: 89.5
- compound: "O=C(COC(=O)CCC(=O)c1cccs1)NCc1ccco1"
  Her2 level / %: 109
- compound: "O=C(NC1CCCC1)C1CC1c1ccccc1 (configuration not stated)"
  Her2 level / %: 102
- compound: "O=C(OCCN1C(=O)c2ccccc2C1=O)c1ccc(S(=O)(=O)N2CCCCCC2)cc1"
  Her2 level / %: 76.5
- compound: "Cc1ccccc1CS(=O)(=O)Cc1ccc(C(=O)NCCCN2CCOCC2)o1"
  Her2 level / %: 97
- compound: "COc1ccc(OCC(=O)N2CCN(C(=O)c3cccs3)CC2)cc1"
  Her2 level / %: 82.5
- compound: "Cc1oc2c(CN3CCCC3)c(O)ccc2c(=O)c1-c1ccccc1"
  Her2 level / %: 82
- compound: "Cc1cc(C)cc(NC(=O)N2CCC(c3nc4ccccc4o3)CC2)c1"
  Her2 level / %: 99
